A collection of binders and their measured fold over control (gMFI)
# TARGET_OR_SYSTEM: T1, human TNFR10 (human)
# T1 construct: whole, on cells; Name as printed is ambiguous (TNFRSF10A-D)
# ASSAY_DETAILS: flow cytometry, HEK293 transfectants vs control cells

- BINDER: "29H10 (antibody, V domains shown, also called 4877-1) VH: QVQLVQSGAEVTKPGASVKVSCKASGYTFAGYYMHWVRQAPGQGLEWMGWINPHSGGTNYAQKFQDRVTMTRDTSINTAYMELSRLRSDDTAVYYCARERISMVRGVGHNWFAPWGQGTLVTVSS VL: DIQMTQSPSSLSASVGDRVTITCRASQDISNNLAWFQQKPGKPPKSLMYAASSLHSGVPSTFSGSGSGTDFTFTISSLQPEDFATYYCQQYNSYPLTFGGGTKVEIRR"
  SCALE_UNIT: "fold"
  fold over control (gMFI): 0.89
- BINDER: "33H6 (antibody, IgG4, V domains shown, also called 4883-1) VH: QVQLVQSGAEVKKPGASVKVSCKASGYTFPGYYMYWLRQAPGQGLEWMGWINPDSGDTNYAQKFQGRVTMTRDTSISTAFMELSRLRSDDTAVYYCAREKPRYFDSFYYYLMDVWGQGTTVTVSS VL: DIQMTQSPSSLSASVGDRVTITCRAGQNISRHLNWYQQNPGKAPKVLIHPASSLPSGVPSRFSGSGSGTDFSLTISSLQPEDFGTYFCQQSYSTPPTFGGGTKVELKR"
  SCALE_UNIT: "fold"
  fold over control (gMFI): 0.77
- BINDER: "37A6 (antibody, IgG4, V domains shown, also called 4865-1) VH: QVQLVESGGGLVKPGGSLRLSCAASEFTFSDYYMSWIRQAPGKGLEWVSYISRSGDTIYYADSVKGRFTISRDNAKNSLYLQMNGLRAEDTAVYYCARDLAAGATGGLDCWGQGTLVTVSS VL: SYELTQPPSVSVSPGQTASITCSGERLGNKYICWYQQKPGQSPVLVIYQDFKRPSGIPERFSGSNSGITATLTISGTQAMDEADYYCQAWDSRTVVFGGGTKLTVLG"
  SCALE_UNIT: "fold"
  fold over control (gMFI): 0.88
- BINDER: "39C2 (antibody, IgG4, V domains shown, also called 4887-1) VH: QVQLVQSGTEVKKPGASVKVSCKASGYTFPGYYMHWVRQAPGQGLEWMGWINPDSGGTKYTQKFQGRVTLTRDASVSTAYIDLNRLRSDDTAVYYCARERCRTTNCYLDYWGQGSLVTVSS VL: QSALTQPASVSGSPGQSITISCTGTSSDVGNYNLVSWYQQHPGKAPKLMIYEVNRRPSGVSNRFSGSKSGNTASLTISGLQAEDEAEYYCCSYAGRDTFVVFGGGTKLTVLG"
  SCALE_UNIT: "fold"
  fold over control (gMFI): 0.86
- BINDER: "4G7 (antibody, IgG4, V domains shown, also called 4869-1) VH: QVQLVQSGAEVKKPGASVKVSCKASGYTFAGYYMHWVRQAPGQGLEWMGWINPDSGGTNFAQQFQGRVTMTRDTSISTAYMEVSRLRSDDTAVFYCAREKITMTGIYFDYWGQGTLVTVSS VL: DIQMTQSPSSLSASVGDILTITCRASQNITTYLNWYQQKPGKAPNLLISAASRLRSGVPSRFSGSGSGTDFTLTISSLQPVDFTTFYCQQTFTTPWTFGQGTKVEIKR"
  SCALE_UNIT: "fold"
  fold over control (gMFI): 0.87
